# apparent KD of MS2 coat protein annotations
Tested on: MS2 coat protein
assay-name: apparent KD of MS2 coat protein; designed switch direction (-1 OFF switch, 1 ON switch): -1; higher = weaker reporter binding
study-conditions: Eterna round: R95; input ligand: microRNA oligo, concentration not stated
measured-quantity: apparent KD of MS2 coat protein

AACAAUAAGGAGGAUAUCGUAUCGGAAACGAUACGAGAAGGCUUAACAUGAGGAUCACCCAUGUUCCUCAAUAA [Fiskers Ex 6 - 23] (puzzle: Exclusion 6) = 33.1 nM
GCAGGCGACUAGGCUCGUCUUAUUUUGAGAAGAUUGAAAACAUGAGGAUCACCCAUGUUUGUGGGAGAGUUGGAGUG [JR_SV3TOV2_Sub013] (puzzle: Sensor v3, turn-off variant 2) = 73 nM
CGUCCGGCUUCCCUUCAAGACAUGAGGAUCACCCAUGUUUUUGUUUUUGCGAGCUUUUUGCUUUUUGCUCGUCUUGU [Even Better Attempt 2] (puzzle: Sensor v3, turn-off variant 1) = 13 nM
AUAAAUAAGGAGGAUAUCGUAUCGGAAACGAUACGAGAAGGCCUAACAUGAGGAUCACCCAUGUUCCUUAAAUA [Mat - Exclusion 6 - Eli Mod - D62] (puzzle: Exclusion 6) = 24.1 nM
UAUUAGUGAGGAUAUGAGUCGUAGAACAAUAGUACUACGUCUCAGAAGGUACAUGAGGAUCACCCAUGUUCCUC [Fiskers Ex 4 Super Stable 44 mod 32] (puzzle: Exclusion 4) = 18.9 nM

---

System: MS2 coat protein
assay-name: apparent KD of MS2 coat protein; designed switch direction (-1 OFF switch, 1 ON switch): -1; higher = weaker reporter binding
study-conditions: input ligand: none
measured-quantity: apparent KD of MS2 coat protein (nM)

ACAUGUAAUGUAGGAUAUUUUACACAUGAGGAUCACCCAUGUGACCGGAGGCUUUACUAUGAGUAAGAGAAGGGUAUGUACAUG [Ex NG2 #62] (Eterna round: R96, puzzle: Exclusion NG 2) = 86.7
GCGCACCUACCAAAAGGUAGGUCCACAUGAGGAUCACCCAUGUAGGAUAUCGAUUGCUUUGCAGUCGAGAAGGACAUGAUGCGC [JL ENG3 3.80 Mod 10] (Eterna round: R96, puzzle: Exclusion NG 3) = 21.3
AUAGAUCGAGUUAGGAUAUUGCAGGCCGAGUACAGCAAGAAGGAACAUGAGGAUCACCCAUGUAAACGUGGCUC [Eternabot (L1) Solution 53] (Eterna round: R97, puzzle: Brourd's mod of Exclusion 4) = 17.7
AAACACGGAGGAUAUGGUCACUAGGACAUGAGGAUCACCCAUGUGGGAGUGCUAGUGCUACCAGAAGGUUGAAGUC [Eternabot (L1) Solution 54] (Eterna round: R97, puzzle: Exclusion 5) = 76.1
AGCAAGUCAGGAUAUCAAAGCAGCUAUAUGCUGCCCGGGCUUGAGAAGGGACUUGAGGAUCACCCAAGUGAUAG [Titiar] (Eterna round: R97, puzzle: Exclusion 4) = 25.1

---

Test system: MS2 coat protein
assay-name: apparent KD of MS2 coat protein; higher = weaker reporter binding
study-conditions: Eterna round: R107; input ligand: theophylline 20 uM
measured-quantity: apparent KD of MS2 coat protein

AUAUCAUAGAGUGAUACCAGACUACAUGAGGAUCACCCAUGUGACAUUUAAAUAUCAUUUGUCCCUUGGCAGCACAUUAAGUACA [JR_Nu_ExcTheophyB_Sub020] = 79.8 nM
AGCACACAUCCUGAUACCAGAGACAUGAGGAUCACCCAUGUCCGAUCGUCCUGCCUCAGACUCCCUUGGCAGCAGGAUGUGUGCU [Exclusion Theophylline B GF7] = 18.6 nM
AUACAUGAGGCGGCCGCCACUUUACAUGAGGAUCAACAUGAGGAUCACCCAUGUUACAUGUGGAUAAGGACCGGGCCUCAUGUAU [Same State Tryptophan B 2] = 178 nM
GAUCAAAGAUCACAUGAGGAUCACCCAUGUCGAGGACCGGUACGGCCGCCACUCGCGGCGGUGAAAAUAGAUACAAAGUAUCUAU [Ex_TrypA - ViennaApproves] = 83.9 nM
GUCGGUACGUCGGCAAAGCCGAUGUGCCAGCGAGGACCGGUACGGCCGCCACUCGUACAUGAGGAUCACCCAUGUCCGGUCCGAC [Omei Trp SS A C v4] = 139 nM
UAUUAUCAGUCGGCCGCCACUGACACAUGAGGAUCACCCAUGUAAUUUGGGUUAUAUAUAAAUUACAGGACCGGGACAAAGGCUA [JR_ExcTryptoB_Sub013] = 318 nM
